- system: recombinant human baculovirus-expressed GST-tagged FASN (Homo sapiens, UniProt P49327)
- Construct: GST
- Sequence (P49327 whole entry): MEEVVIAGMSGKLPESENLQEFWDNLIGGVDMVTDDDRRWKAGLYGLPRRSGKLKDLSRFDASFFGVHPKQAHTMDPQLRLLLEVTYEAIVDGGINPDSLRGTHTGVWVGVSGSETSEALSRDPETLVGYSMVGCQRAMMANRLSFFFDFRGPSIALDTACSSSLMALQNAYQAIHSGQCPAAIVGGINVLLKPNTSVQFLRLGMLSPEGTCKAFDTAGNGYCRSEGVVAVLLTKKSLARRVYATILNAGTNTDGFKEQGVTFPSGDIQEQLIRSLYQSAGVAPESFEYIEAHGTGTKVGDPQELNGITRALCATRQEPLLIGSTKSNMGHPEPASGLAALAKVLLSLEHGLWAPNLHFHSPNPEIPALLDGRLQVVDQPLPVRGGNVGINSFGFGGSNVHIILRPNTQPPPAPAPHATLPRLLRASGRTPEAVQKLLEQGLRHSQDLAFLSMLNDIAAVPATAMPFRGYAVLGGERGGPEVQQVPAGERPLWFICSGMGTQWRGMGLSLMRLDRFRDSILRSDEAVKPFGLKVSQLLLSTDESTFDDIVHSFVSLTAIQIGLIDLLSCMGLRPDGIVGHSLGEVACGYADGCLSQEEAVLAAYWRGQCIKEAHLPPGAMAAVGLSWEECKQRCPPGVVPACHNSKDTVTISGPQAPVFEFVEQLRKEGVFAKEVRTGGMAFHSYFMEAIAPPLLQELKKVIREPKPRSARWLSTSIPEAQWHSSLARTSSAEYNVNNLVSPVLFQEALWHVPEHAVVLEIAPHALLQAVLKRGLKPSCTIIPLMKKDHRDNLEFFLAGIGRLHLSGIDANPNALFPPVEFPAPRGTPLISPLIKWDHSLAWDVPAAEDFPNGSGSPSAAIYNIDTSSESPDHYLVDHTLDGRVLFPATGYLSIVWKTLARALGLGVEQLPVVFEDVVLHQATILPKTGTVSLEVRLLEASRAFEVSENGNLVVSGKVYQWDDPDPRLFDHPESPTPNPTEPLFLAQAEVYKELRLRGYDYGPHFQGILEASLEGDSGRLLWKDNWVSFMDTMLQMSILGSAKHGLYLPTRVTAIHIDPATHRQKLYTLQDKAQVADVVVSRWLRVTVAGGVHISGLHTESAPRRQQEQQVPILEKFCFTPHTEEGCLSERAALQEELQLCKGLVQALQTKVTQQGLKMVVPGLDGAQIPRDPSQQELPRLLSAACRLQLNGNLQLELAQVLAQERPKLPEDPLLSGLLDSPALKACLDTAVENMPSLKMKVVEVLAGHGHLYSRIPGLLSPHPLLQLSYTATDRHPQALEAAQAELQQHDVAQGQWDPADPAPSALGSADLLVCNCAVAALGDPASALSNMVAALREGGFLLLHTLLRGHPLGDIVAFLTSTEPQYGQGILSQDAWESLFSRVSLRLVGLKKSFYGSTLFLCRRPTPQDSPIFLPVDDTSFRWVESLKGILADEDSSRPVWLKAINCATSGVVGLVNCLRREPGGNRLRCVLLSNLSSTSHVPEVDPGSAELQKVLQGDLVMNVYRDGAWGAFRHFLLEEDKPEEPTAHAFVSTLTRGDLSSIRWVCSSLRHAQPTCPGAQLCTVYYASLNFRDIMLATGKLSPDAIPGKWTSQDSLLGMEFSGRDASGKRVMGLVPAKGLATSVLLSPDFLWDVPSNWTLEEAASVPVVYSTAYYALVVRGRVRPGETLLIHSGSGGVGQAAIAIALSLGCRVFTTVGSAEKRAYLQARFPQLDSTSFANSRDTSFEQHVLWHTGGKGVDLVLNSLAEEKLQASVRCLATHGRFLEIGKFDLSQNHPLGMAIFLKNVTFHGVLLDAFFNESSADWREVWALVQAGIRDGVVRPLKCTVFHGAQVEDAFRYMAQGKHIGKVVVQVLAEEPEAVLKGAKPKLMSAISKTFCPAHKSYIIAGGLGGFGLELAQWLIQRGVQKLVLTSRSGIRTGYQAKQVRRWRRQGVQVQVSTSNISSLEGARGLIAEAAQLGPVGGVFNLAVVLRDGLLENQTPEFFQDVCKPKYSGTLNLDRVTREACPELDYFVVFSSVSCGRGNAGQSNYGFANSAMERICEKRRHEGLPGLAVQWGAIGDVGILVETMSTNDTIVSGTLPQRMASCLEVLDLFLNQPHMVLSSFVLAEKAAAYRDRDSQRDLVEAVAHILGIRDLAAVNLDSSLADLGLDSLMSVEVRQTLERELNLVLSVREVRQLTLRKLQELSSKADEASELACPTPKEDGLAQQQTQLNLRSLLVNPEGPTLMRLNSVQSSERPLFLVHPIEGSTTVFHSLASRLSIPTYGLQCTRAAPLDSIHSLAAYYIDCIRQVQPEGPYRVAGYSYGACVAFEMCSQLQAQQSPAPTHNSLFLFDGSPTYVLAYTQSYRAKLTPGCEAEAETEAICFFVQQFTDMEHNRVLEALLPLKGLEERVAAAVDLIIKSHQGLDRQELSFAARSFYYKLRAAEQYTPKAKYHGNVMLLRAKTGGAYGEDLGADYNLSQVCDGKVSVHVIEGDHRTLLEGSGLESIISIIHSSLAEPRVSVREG
- experimental.protocol: FASN enzyme activity assay, fluorescence-based detection of CoA with CPM
- Format: biochemical
- experimental.conditions: 5 nM FASN, 150 μM NADPH, 10 μM acetyl-CoA, 25 μM malonyl-CoA, 90 minutes incubation; read-out: IC50 data for Compounds of Formulae I-V/V(a): Activity
pIC50: −log10 of the molar value. Counter-ions that a name gives are not always drawn.
recorded.metric: pIC50

Here's what some known entries look like.
molecule: O=C(C1CC1)N1CCC(Oc2ccc(-c3ccc4nccn4c3Cl)cc2)CC1
system: recombinant human baculovirus-expressed GST-tagged FASN (Homo sapiens, UniProt P49327)
pIC50: 6.00 to 7.00
//
molecule: CCC(=O)N1CCC(N(C)C(=O)c2ccc(-c3ccc4cnccc4c3)cc2F)CC1
system: recombinant human baculovirus-expressed GST-tagged FASN (Homo sapiens, UniProt P49327)
pIC50: 5.00 to 6.00
//
molecule: O=C(C1CC1)N1CCC(Oc2ccc(-c3ccc(Cl)c(Cl)c3)cc2)CC1
system: recombinant human baculovirus-expressed GST-tagged FASN (Homo sapiens, UniProt P49327)
pIC50: 5.00 to 6.00
//
molecule: COc1cccc2ncc(-c3ccc(OC4CCN(C(=O)[C@H]5CCCO5)CC4)cc3)cc12 [Example 465, HCl]
system: recombinant human baculovirus-expressed GST-tagged FASN (Homo sapiens, UniProt P49327)
pIC50: 6.00 to 7.00

Let us examine a further case.
Output measured pIC50 for this item: CCC(=O)N1CCC(Oc2ccc(-c3ccc4cccnc4c3C)cc2)CC1
7.00 to 9.00

###

- system: recombinant human baculovirus-expressed GST-tagged FASN (Homo sapiens)
- Construct: GST
- experimental.protocol: FASN enzyme activity assay, fluorescence-based detection of CoA with CPM
- Format: biochemical
- experimental.conditions: 5 nM FASN, 150 μM NADPH, 10 μM acetyl-CoA, 25 μM malonyl-CoA, 90 minutes incubation; read-out: IC50 data for Compounds of Formulae I-V/V(a): Activity
pIC50: −log10 of the molar value. Where a name gives a salt, the structure may show the parent alone.
recorded.metric: pIC50

Output measured pIC50 for this item: CCC(=O)N1CCC(Oc2ccc(-c3ccc4cccnc4c3C)cc2)C(C)C1 (mixture of isomers) [Example 375, TFA salt]
7.00 to 9.00

Output measured pIC50 for this item: CCC(=O)N1CCC(Oc2ccc(-c3ccc4cn(C)nc4c3)cc2)CC1
6.00 to 7.00

Output measured pIC50 for this item: O=C(C1CC1)N1CCC(Oc2ccc(-c3cnc4ccoc4c3)cc2)CC1
5.00 to 6.00

###

The entries below are paired with their reported melting point.
Kindly answer with a numeric value in °C, unit omitted.

molecule: CC(C)NC(=O)N1CCC(Oc2ccc(-c3ccc4nccn4c3Cl)cc2)CC1 [Example 570]
recorded.metric: melting point
units.symbol: °C
recorded.result: 220
//
molecule: CCCONC(=O)N1CCC(Oc2ccc(-c3cnc4ccccc4c3C)cc2)CC1 [Example 589]
recorded.metric: melting point
units.symbol: °C
recorded.result: 75

Output measured melting point for this item: Cc1nccc2cc(-c3ccc(OC4CCN(C(=O)NOC(C)C)CC4)cc3)ccc12 [Example 583]
189

###

- system: recombinant human baculovirus-expressed GST-tagged FASN (Homo sapiens, UniProt P49327)
- Construct: GST
- experimental.protocol: FASN enzyme activity assay, fluorescence-based detection of CoA with CPM
- Format: biochemical
- experimental.conditions: 5 nM FASN, 150 μM NADPH, 10 μM acetyl-CoA, 25 μM malonyl-CoA, 90 minutes incubation; read-out: IC50 data for Compounds of Formulae I-V/V(a): Activity
- Source text: FASN Enzyme activity may be determined by detecting coenzyme A (CoA), a product of FASN-catalyzed synthesis of palmitate from acetyl-CoA and malonyl-CoA with NADPH as a cofactor. The assay is fluorescence-based and measures the interaction of free CoA with 7-diethylamino-3-(4′-malemimidylphenyl)-4-methylcoumarin (CPM; Life Technologies, CA) as described in Chung et al (2008). […]
pIC50: −log10 of the molar value. Where a name gives a salt, the structure may show the parent alone.
recorded.metric: pIC50

Here's what some known entries look like.
compound: O=C(C1CC1)N1CCC(Oc2ccc(-c3ccnc(-c4ccccc4)c3)cc2)CC1 [Example 403, TFA salt]
system: recombinant human baculovirus-expressed GST-tagged FASN (Homo sapiens, UniProt P49327)
pIC50: 5.00 to 6.00
--
compound: CCC(=O)N1CCC(Oc2ccc(-c3cnc4ccccc4c3)cc2)CC1
system: recombinant human baculovirus-expressed GST-tagged FASN (Homo sapiens, UniProt P49327)
pIC50: 7.00 to 9.00
--
compound: CCC(=O)N1CC[C@@H](Oc2ccc(-c3ccc4cccnc4c3)cc2)C1 [Example 344, HCl]
system: recombinant human baculovirus-expressed GST-tagged FASN (Homo sapiens, UniProt P49327)
pIC50: 6.00 to 7.00

Output measured pIC50 for this item: Cc1c(-c2ccc(OC3CCN(C(=O)C4(C(F)(F)F)CC4)CC3)cc2)ccc2cccnc12
5.00 to 6.00

Output measured pIC50 for this item: CCC(=O)N1CCC(Oc2ccc(-c3cccc(-c4ccccn4)c3C)cc2)CC1 [Example 406, TFA salt]
5.00 to 6.00

Output measured pIC50 for this item: CNc1c(-c2ccc(OC3CCN(C(=O)[C@H]4CCCO4)CC3)cc2)ccc2cccnc12
7.00 to 9.00

Output measured pIC50 for this item: CCC(=O)N1CC(Oc2ccc(-c3cnc4ccccc4c3)cc2)C1
6.00 to 7.00

Output measured pIC50 for this item: O=C(N1CCC(Oc2ccc(-c3cnc4ccccc4n3)cc2)CC1)N1CCCO1
7.00 to 9.00
